Data provenance is patent US3998843A.

experiment: Intravenous LD50 in rats and therapeutic ratio; format: in vivo, rat; settings: rat, in vivo, iv; ratio of LD50 to the dose giving maximum tubocurarine reversal; rats
Measured quantity: selectivity ratio

In [3]: df
Out[3]:
                                   compound  measured_number
0  C[N+]1([C@@H]2CCCC[C@@H]2c2ccccc2)CCCC1 (relative stereo)              7.2
1  C[N+]1([C@H]2CCCC[C@H]2c2cccc(O)c2)CCCC1 (stereo in doubt)               15
